B1: LINE1-full (parent)
chain: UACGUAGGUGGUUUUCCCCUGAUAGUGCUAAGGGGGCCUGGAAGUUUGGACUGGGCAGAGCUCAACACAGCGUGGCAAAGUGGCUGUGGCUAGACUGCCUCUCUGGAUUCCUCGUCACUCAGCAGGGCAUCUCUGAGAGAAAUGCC

Variants of: B1
ASSAY_INFO: self-cleavage, relative activity (ratio to wild type); higher = more cleavage; in vitro, sequencing; the parent is a self-cleaving ribozyme
Please respond with reported self-cleavage for every item in the list.
When you answer, write just the number.

Request: For the variant shown here, G33A U91A , give the reported self-cleavage.
Result: 0.59

Request: For the variant shown here, `A142U` , give the reported self-cleavage.
Result: 1.22

Request: For the variant shown here, G34A C120U , give the reported self-cleavage.
Result: 1.64

Request: For the variant shown here, G11A A43G , give the reported self-cleavage.
Result: 1.42

Request: For the variant shown here, U112A A142G , give the reported self-cleavage.
Result: 1.57

Request: For the variant shown here, G34A U52C , give the reported self-cleavage.
Result: 1.1

Request: For the variant shown here, A64U A121G , give the reported self-cleavage.
Result: 0.49

Request: For the variant shown here, G97A A121C , give the reported self-cleavage.
Result: 0.12

Request: For the variant shown here, G35U A94G , give the reported self-cleavage.
Result: 0.19

Request: For the variant shown here, U46C C103A , give the reported self-cleavage.
Result: 1.58

Request: For the variant shown here, U45A A129G , give the reported self-cleavage.
Result: 1.26

Every entry's value here was drawn from the RNAGym collection of RNA variant scans (doi:10.7554/elife.90254).
